meta.source: patent EP4714947A1

experiment: in vivo; details: rat, po, 10 mg/kg
metric-name: Tmax

[[record]]
molecule = "CCn1ncc2c(Nc3cc(C)[nH]n3)nc([C@H]3CC[C@](OC)(C(=O)N[C@@H](C)c4cnc(-n5cc(F)cn5)cn4)CC3)nc21 [Free base crystal form III]"
result = "6 h"


----------
assay: physchem; settings: sgf, pH 1.19
metric-name: solubility at 0.5 h (µg/mL)

[[record]]
compound = "CCn1ncc2c(Nc3cc(C)[nH]n3)nc([C@H]3CC[C@](OC)(C(=O)N[C@@H](C)c4cnc(-n5cc(F)cn5)cn4)CC3)nc21 [Fumarate crystal form I]"
units = "µg/mL"
numeric_value = 210

